Where do these numbers come from? They come from the supplement of paper PMC9170038.

- Test system: MS2 coat protein
- protocol-details: apparent KD of MS2 coat protein; designed switch direction (-1 OFF switch, 1 ON switch): 1; higher = weaker reporter binding
- experimental-context: input ligand: none
The sequences listed here are annotated with their apparent KD of MS2 coat protein.

{"sequence-text": "GAGCCAGUCCGAGGAUAUUCGUAGUACCACAUGAGGAUCACCCAUGUGGGCUCAGAAGAGCCCUUGGAGAAGGCGGGCUGGCUC [SS-NG2-LRO20] (Eterna round: R96, puzzle: Same State NG 2)", "apparent KD of MS2 coat protein / nM": 12.4}
{"sequence-text": "AGCCGAGACACAGGAUAUACAUGUAUACAUGAGGAUCACCCAUGUAGCAACACGUGGUAGUGAUUGUAGAAGGGUGCUCGGCGC [Omei SS(NG)2 Cv13] (Eterna round: R96, puzzle: Same State NG 2)", "apparent KD of MS2 coat protein / nM": 36.8}
{"sequence-text": "AAACGGUCGCUGCGGCGGCCACAUGAGGAUCACCCAUGUACAUAGGAUAUCGCCUAAAAUACUGGCGAGAAGGGUGAUUAAAGA [Ergegeti] (Eterna round: R96, puzzle: Same State NG 3)", "apparent KD of MS2 coat protein / nM": 79.4}
{"sequence-text": "GCUAGAAAUAAAGCCAACAUGAGGAUCACCCAUGUAUGUUGGCAGGAUAUCGUAUGCAAAGCAUACGAGAAGGGCUAAACUAGC [Mat - Same State NG 3 - JL Mod - D6] (Eterna round: R96, puzzle: Same State NG 3)", "apparent KD of MS2 coat protein / nM": 201}

----------
- System: MS2 coat protein
- protocol-details: apparent KD of MS2 coat protein; designed switch direction (-1 OFF switch, 1 ON switch): -1; higher = weaker reporter binding
- experimental-context: input ligand: FMN 200 uM
apparent KD of MS2 coat protein below 200 nM gives f; apparent KD of MS2 coat protein at or above it gives t.

{"sequence-text": "UCUGGUCGAGGAUAUACGUGAGGUGCUUCGGCACCAGGUCUACAUGAGGAUCACCCAUGUAGAAGGCGACCAGA [EX2 #61] (Eterna round: R97, puzzle: Exclusion 2)", "target-of-assay": "MS2 coat protein", "class-assignment": "f"}
{"sequence-text": "AGUUGGGCAGGAUAUACAUGAGGAUCACCCAUGUGAGAAAUACUAGUGAGGUCGAUUAGUAGAAGGGCCUGACA [Mat - Exclusion 3 - Eli Mod - D30] (Eterna round: R97, puzzle: Exclusion 3)", "target-of-assay": "MS2 coat protein", "class-assignment": "t"}
{"sequence-text": "GCCGAAAAAGUGAGGAUAUACCUAUGGAAACAUAGGUAGAAGGCACAUGAGGAUCACCCAUGUAUCCUAACGGC [Mat - Exclusion 4 - Eli Mod - D28] (Eterna round: R97, puzzle: Brourd's mod of Exclusion 4)", "target-of-assay": "MS2 coat protein", "class-assignment": "t"}
{"sequence-text": "CCAUGUCCGGAGGAUAUGCGCAGACUUACUGCAGCAGAAGGUUGGACUUGAGGAUCACCCAAGUGACCAUUUGU [Esrebionra] (Eterna round: R97, puzzle: Exclusion 6)", "target-of-assay": "MS2 coat protein", "class-assignment": "t"}
{"sequence-text": "UAUUAUCAAGCUAGAUCCCACAUGAGGAUCACCCAUGUGCUCGUCUUAUUUCCGGAAUUAUUGGGCUCUCGUCUUUU [JR_STOV1_Sub092] (Eterna round: R97, puzzle: Sensor, turn-off variant 1)", "target-of-assay": "MS2 coat protein", "class-assignment": "t"}
